For each of the molecules below, state its Specific activity of A407 (substrate converted to 4-O-glucoside).
Molecular target: recombinant GTase A407 (Arabidopsis thaliana)
Construct: made in house; host or cells: E. coli
Sequence (O81498 whole entry): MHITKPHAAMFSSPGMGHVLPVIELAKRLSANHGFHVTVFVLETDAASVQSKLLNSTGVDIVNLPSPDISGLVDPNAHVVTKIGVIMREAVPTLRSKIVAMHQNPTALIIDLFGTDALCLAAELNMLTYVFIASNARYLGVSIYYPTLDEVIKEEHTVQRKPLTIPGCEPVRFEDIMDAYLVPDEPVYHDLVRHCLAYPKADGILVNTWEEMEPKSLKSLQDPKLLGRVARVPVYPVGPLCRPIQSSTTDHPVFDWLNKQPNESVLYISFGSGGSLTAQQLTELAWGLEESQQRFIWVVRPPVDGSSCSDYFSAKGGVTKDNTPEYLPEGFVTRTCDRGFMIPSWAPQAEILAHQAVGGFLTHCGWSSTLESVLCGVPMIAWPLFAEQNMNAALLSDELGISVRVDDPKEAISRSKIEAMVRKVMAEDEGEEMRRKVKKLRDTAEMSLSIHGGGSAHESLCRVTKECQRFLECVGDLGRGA
Experiment: Specific activity of recombinant GTase producing O-glucosides against lignin precursors (HPLC)
Assay type: biochemical
Details: 30° C.; ND = not detected
Write the quantity with the unit trailing the number.

input: Missing value: Specific activity of A407 (substrate converted to 4-O-glucoside), recombinant GTase A407 (Arabidopsis thaliana), entry COc1cc(/C=C/CO)ccc1O [Coniferyl alcohol, coniferyl alcohol] . Fill in?
output: 2.78 nkat/mg

input: Missing value: Specific activity of A407 (substrate converted to 4-O-glucoside), recombinant GTase A407 (Arabidopsis thaliana), entry COc1cc(/C=C/C(=O)O)cc(OC)c1O [Sinapic acid, sinapic acid] . Fill in?
output: 65.39 nkat/mg

input: Missing value: Specific activity of A407 (substrate converted to 4-O-glucoside), recombinant GTase A407 (Arabidopsis thaliana), entry O=C(O)/C=C/c1ccc(O)cc1 [p-coumaric acid] . Fill in?
output: 0.01 nkat/mg

input: Missing value: Specific activity of A407 (substrate converted to 4-O-glucoside), recombinant GTase A407 (Arabidopsis thaliana), entry COc1cc(/C=C/C(=O)O)ccc1O [Ferulic acid, ferulic acid] . Fill in?
output: 0.25 nkat/mg

input: Missing value: Specific activity of A407 (substrate converted to 4-O-glucoside), recombinant GTase A407 (Arabidopsis thaliana), entry COc1cc(/C=C/CO)cc(OC)c1O [sinapyl alcohol] . Fill in?
output: 114.76 nkat/mg

input: Missing value: Specific activity of A407 (substrate converted to 4-O-glucoside), recombinant GTase A407 (Arabidopsis thaliana), entry O=C(O)C=Cc1ccc(O)c(O)c1 [Caffeic acid, 3,4-dihydroxycinnamic acid] . Fill in?
output: 0.07 nkat/mg
